- Test system: biotinyl-Met-oxazolone
- assay_remarks: self-aminoacylation, catalytic enhancement (BMO) (fold over background); higher = more active; k-Seq, kA / k0A0; sequences stand for … in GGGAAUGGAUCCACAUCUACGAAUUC…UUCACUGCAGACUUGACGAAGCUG
This sample holds only a part of the variants without activity.
Please use the following self-aminoacylation ranges when assigning a class: class 1 (below 0.9), class 2 (0.9 to below 4), class 3 (4 or more)

Some solved cases for reference:
Note: place this sequence into its band. Item: AUUCACUUAGGACAUCGGGUG [Fam2.2 aminoacylation ribozyme variant]
class 2

Which bin should I file CUUCAGCUAGGUCAUCGGGUG [Fam2.2 aminoacylation ribozyme variant] under?
class 2

Assign a category based on measured self-aminoacylation for AUUCACCUAGGUAAUCGGGUA [Fam2.2 aminoacylation ribozyme variant] and give only the class name.
class 2

Bin? AUUCACCCAGGUCAUCGGCUG [Fam2.2 aminoacylation ribozyme variant]
class 2

Category of AUUCACCUAGGUGAUCGGGGG [Fam2.2 aminoacylation ribozyme variant] :
class 3

Given CCACACUUCAAGAAAGCGGUC [Fam1B.1 aminoacylation ribozyme variant] , name the class its self-aminoacylation places it in.
class 1

Sort into band: AUUACCCUGGUCUUGGAGUGA [Fam2.1 aminoacylation ribozyme variant]
class 2

Exercise: read the entry AUUCACCCAGGUCAUCGGAUG [Fam2.2 aminoacylation ribozyme variant] and state which class it falls under.
class 1

Sort CUACUUCAAAAAAUCGGUCCG [Fam1A.1 aminoacylation ribozyme variant] into one of the categories.
class 1

Please indicate the class for CCGCACUCCAAGCAAUCGGUC [Fam1B.1 aminoacylation ribozyme variant] based on its self-aminoacylation.
class 2

Further cases:
Which class is correct for the following sequence? CUACUUCAAGCUAUCGGUCUG [Fam1A.1 aminoacylation ribozyme variant]
class 2

Hey, which category is AUUACCCUAGACAUCGAGUGA [Fam2.1 aminoacylation ribozyme variant] in, do you know?
class 3

Band assignment needed for CUACUUAAAAAAAUCGGUCUG [Fam1A.1 aminoacylation ribozyme variant] please.
class 1

Please classify: CUACUCCAAACAAUCUGUCUG [Fam1A.1 aminoacylation ribozyme variant]
class 1

Categorize the following entry: AAUAACCUGGUCAUCGAGUGA [Fam2.1 aminoacylation ribozyme variant]
class 3

Assign a category based on measured self-aminoacylation for AUUCAACUAAGUCAUCGGGUG [Fam2.2 aminoacylation ribozyme variant] and give only the class name.
class 3

----------
- Tested on: biotinyl-Trp-oxazolone
- assay_remarks: self-aminoacylation, catalytic enhancement (BWO) (fold over background); higher = more active; k-Seq, kA / k0A0; sequences stand for … in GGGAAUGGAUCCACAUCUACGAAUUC…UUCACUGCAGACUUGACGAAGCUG
Variants at the floor of the assay were thinned out.
# label = bin(measured self-aminoacylation), where bins are range A: < 0.8; range B: ≥ 0.8 and < 5; range C: ≥ 5

# bin label for AUUCACCUUGGUCAGCGGGUG [Fam2.2 aminoacylation ribozyme variant]
range B

Record AUUCACCUAGGUUGUCGGGUG [Fam2.2 aminoacylation ribozyme variant] — which class?
range B

Form: Item = AAGUUCGCUAAUACUCGCAAG [Fam3.1 aminoacylation ribozyme variant] ; Class = ?
range A

Band assignment needed for AUUACCCUGAUCAUCGGGUGA [Fam2.1 aminoacylation ribozyme variant] please.
range C

Into which bin does this sequence go? CCAAACUUCAAGCAAUCGGCC [Fam1B.1 aminoacylation ribozyme variant]
range C

New cases:
Place this sequence in its band: CCACACUUCAAUCAAGCGGUC [Fam1B.1 aminoacylation ribozyme variant]
range A

Using the reported self-aminoacylation, which band applies to CAACUUCAGACAAUCGGUCUG [Fam1A.1 aminoacylation ribozyme variant] ?
range B

# bin lookup: classify AUAACCCUGGACAUCGAGUGA [Fam2.1 aminoacylation ribozyme variant] by its self-aminoacylation
range C
